Could you please report measured half-life for the items listed next?
- test-method-notes: Terminal half life in Wistar han rat at 2 mg/kg, po and 1 mg/kg, iv
- Type: ADME, organism-based
- experimental-context: in vivo, read-out: beta t1/2 (converted)
Field note: include the unit after the figure.

compound | half-life
C[C@H](c1ccc(F)cc1)N1C(=O)O[C@](Cc2ccccc2)(c2nc3cc(N4CCOCC4)ccc3[nH]2)C1=O | 0.69 h
C[C@H](c1ccc(F)cc1)N1C(=O)O[C@](Cc2ccccc2)(c2nc3cc(-c4cc[nH]n4)ccc3[nH]2)C1=O | 1.8 h
Cc1nocc1-c1ccc2[nH]c([C@@]3(Cc4ccccc4)OC(=O)N([C@H](C)c4ccc(F)cc4)C3=O)nc2c1 | 1.2 h

Indicate its recorded half-life; the compound in question is C[C@H](c1ccc(F)cc1)N1C(=O)O[C@](Cc2ccccc2)(c2nc3cc(NS(C)(=O)=O)ccc3[nH]2)C1=O
1.6 h

FYI, the data here is from ChEMBL document CHEMBL3576820.
